Measured half-life by item
test: Pharmacokinetic study in male Sprague-Dawley rats (IV and PO), plasma; format: in vivo, rat; conditions: male, Sprague-Dawley; rat plasma, PO, 3 mg/kg
Provide the reading as a plain figure in h.

| SMILES REPRESENTATION | half-life (h) |
| --- | --- |
| CN(C)C(=O)Cn1ccc2nc(N[C@H]3CC[C@@H](Oc4nc(N5CCOCC5)cc5ncccc45)CC3)ncc21 | 2.59 |
| O=C(COc1cnc(N[C@H]2CC[C@@H](Oc3nc(N4CCOCC4)cc4ncccc34)CC2)nc1)N1CCOCC1 | 5.68 |

Report half-life for CN1CCN(CCOc2cnc(N[C@H]3CC[C@@H](Oc4nc(N5CCOCC5)cc5ncccc45)CC3)nc2)CC1
2.81
